Where do these numbers come from? They come from patent US20260008852A1.

Molecular target: T1, B7-H3 on CHO-K1 cells stably transfected with B7-H3 (GenScript #M00536) (UniProt Q5ZPR3 29-534, limits assumed)
T1 sequence (looked up): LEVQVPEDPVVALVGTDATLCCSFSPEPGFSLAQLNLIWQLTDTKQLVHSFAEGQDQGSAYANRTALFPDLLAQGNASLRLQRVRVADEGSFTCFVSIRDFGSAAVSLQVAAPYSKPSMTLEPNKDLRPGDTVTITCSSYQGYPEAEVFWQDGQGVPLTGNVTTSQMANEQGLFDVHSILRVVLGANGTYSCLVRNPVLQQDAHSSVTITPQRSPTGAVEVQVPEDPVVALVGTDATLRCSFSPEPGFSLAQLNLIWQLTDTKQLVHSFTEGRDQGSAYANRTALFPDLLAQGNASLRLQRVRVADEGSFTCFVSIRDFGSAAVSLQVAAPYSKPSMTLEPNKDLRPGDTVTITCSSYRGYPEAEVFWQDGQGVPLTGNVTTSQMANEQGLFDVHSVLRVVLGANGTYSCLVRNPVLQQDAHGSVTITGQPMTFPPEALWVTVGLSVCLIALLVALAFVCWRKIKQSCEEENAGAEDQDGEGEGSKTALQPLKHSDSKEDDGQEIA
Test: cell-based or functional assay
Known ADCC reporter assay, EC50 Value, CHOK1/B7-H3 cells of a selection of binders
State just the number; it will be interpreted in µg/mL.

Q: Recorded ADCC reporter assay, EC50 Value, CHOK1/B7-H3 cells of 40511p1.1.H5 IgG (antibody, V domains shown) VH: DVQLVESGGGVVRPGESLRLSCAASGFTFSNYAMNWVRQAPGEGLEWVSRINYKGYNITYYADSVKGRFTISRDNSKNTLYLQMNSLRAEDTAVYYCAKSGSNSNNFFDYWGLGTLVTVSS VL: EIVLTQSPGTLSLSPGERATLSCRASQSIRSDLAWYQQKPGQAPRLLIYGAASRATGIPARFSGSGSGTEFTLTISSLQSGDFAVYYCQQYNSWPPLTFGGGTKVEIK , please.
Ans: 0.0164

Q: Try 40579p1.F7 IgG (antibody, V domains shown) VH: EVQLLESGGGLVQPGGSLRLSCAASGFTFSDYYMSWVRQAPGKGLEWVSGISISYGGNAYYADSVKGRFTVSRDNSKNTLYLQMNSLRAEDTAVYYCGRDRSPYQYRSMDVWGQGTTVTVSS VL: EIVLTQSPGTLSLSPGERATLTCRASQSVGDFLAWYQQKPGQAPRLLIYGASTRAAGIPARFRGSGSGTDFTLTISSLQSEDFAVYYCQQYKNWPPLTFGGGTKVEIK next.
Ans: 0.0124

Q: Try 40633p1.1.H11 IgG (antibody, V domains shown) VH: EVQLLESGGGLVQPGGSLRLSCAASGFTFSSYPMTWVRQAPGKGLEWVADINSGGGTTLYADAVKGRFTISRDNSKNIVYLQMNSLRGEDTAVYYCAKHLDYYSYGMDVWGQGTTVTVSS VL: QSVLTQPPSASGTPGQRVTISCSGVTSKIGSKYVHWYQQLPGTAPKLLIYRNFERPSGVPDRFSGSTSGTSASLAISGLQSEDEADYYCATWEGALNGWVFGGGTKLTVL next.
Ans: 0.0412

Q: Try 40633p1.1.F2 IgG (antibody, V domains shown) VH: EVQLLESGGGLVQPGGSLRLSCVASGLTFNGFAMTWVRQAPGKGLEWVSGISWNSGSIYYADSVKGRFTISRDNSKNTVYLQMSSLRAEDTAIYYCAKNWNDYYNSMDVWGQGTTVTVSS VL: QSVLTQPPSASGTPGQRVTISCSGSRSNIGTKYVYWYQQFPGTAPKLLIYTTDRRPSGVPDRFSGSKSGTSASLAISGLQSEDEADYYCSAWDDRLNAWVFGGGTKLTVL next.
Ans: 0.0214
